Every entry's value here was drawn from PubChem BioAssay (NCI).

System: HCT-116 colon
Protocol description: NCI tumour cell line growth inhibition, 48 h; in the data active = GI50 below about 0.43 µM; inactive = the rest
Outcome codes: 1.0 for active, 0.0 for inactive

[
  {
    "Compound": "CCSC[C@@H]1C[C@](O)(c2ccccc2)[C@@H](c2ccccc2)O1",
    "Group label": 0.0
  },
  {
    "Compound": "[Br][Pb]([c]1ccccc1)([c]1ccccc1)[c]1ccccc1",
    "Group label": 1.0
  },
  {
    "Compound": "CC[C@H](C)[C@H](NC(=O)C12C3C4C1C1C2C3C41NC)C(=O)N(C)[C@H](C[C@@H](OC(C)=O)c1nc(C(=O)N[C@@H](Cc2ccccc2)C[C@H](C)C(=O)OC)cs1)C(C)C (some centres undefined)",
    "Group label": 1.0
  },
  {
    "Compound": "S=c1ssnc1-c1cc2ccccc2o1",
    "Group label": 0.0
  }
]

----------
Tested on: HL-60(TB) leukemia
Protocol description: NCI tumour cell line growth inhibition, 48 h
Property: log10 of TGI (log10 of the value in µM)

[
  {
    "Compound": "Cc1ccc(-c2nc(NCCOCCOCCN)nc(N3CCN(c4ccccn4)CC3)n2)cc1",
    "log10 of TGI": 1.61
  },
  {
    "Compound": "Cc1c2cc[n+](Cc3ccc(I)cc3)cc2c(C)c2c1[nH]c1ccccc12",
    "log10 of TGI": 0.05
  },
  {
    "Compound": "CC(=O)c1csc2c1C(=O)c1ccccc1C2=O",
    "log10 of TGI": 1.29
  },
  {
    "Compound": "[O]=[Sn]([CH]1CCCCC1)[CH]1CCCCC1",
    "log10 of TGI": 0.19
  },
  {
    "Compound": "CC(C)=C[C@@H]1C[C@H](C)[C@H]2CC[C@H](C)c3c(O)c(OC4OC(C)C(O)C(O)C4O)c(C)c1c32 (some centres not stated)",
    "log10 of TGI": 1.41
  },
  {
    "Compound": "Cn1cc(-c2cc(-c3cn(C)c4ccccc34)[nH]n2)c2ccccc21",
    "log10 of TGI": 1.80
  },
  {
    "Compound": "O=C1/C(=C/c2ccc(Cl)cc2)CCC1CNc1ccc(Cl)cc1 (configuration not stated)",
    "log10 of TGI": 1.34
  },
  {
    "Compound": "O=C(Nc1cccc(-n2ccc3c(NC(=O)c4ccccc4)ncnc32)c1)Nc1ccc(Cl)c(C(F)(F)F)c1",
    "log10 of TGI": 0.72
  },
  {
    "Compound": "COc1cc(N=Nc2cc(Cc3ccc(N(C)C)cc3)c(N)cc2N(C)C)c2ncccc2c1",
    "log10 of TGI": 0.13
  }
]

----------
Tested on: HOP-92 NSCLC
Protocol description: NCI tumour cell line growth inhibition, 48 h
Overview of recorded GI50 for various molecules

[
  {
    "Molecule": "Clc1ccc2c(NCCNc3nc(N4CCOCC4)nc4ccccc34)ccnc2c1",
    "GI50": "1430 nM"
  },
  {
    "Molecule": "CC(C)=C[C@@H]1C[C@H](C)[C@H]2CC[C@H](C)c3c(O)c(OC4OC(C)C(O)C(O)C4O)c(C)c1c32 (stereo partly drawn)",
    "GI50": "14800 nM"
  },
  {
    "Molecule": "CN(C)CCCN1c2ccccc2Sc2ccc(C(F)(F)F)cc21",
    "GI50": "1040 nM"
  }
]

----------
System: HL-60(TB) leukemia
Protocol description: NCI tumour cell line growth inhibition, 48 h
Property: TGI

[
  {
    "Compound": "CC(=O)O[C@H]1[C@@H](N2CCOCC2)C[C@H]2[C@@H]3CC=C4C[C@@H](N5CCCC5)CC[C@]4(C)[C@H]3CC[C@@]21C",
    "Property": "TGI",
    "Result": "> 100 µM"
  },
  {
    "Compound": "NC(=S)NNCC(=O)CC(O)(C(F)(F)F)C(F)(F)Cl (stereo not drawn)",
    "Property": "TGI",
    "Result": "> 100 µM"
  },
  {
    "Compound": "Cc1cc(N(CCC#N)CCC#N)ccc1/C=C(\\NC(=O)/C=C/c1ccccc1)C(=O)Nc1ccccc1Cl",
    "Property": "TGI",
    "Result": "> 100 µM"
  }
]

----------
System: K-562 leukemia
Protocol description: NCI tumour cell line growth inhibition, 48 h
Overview of recorded TGI for various compounds

[
  {
    "Compound": "C=CCNC(=S)NNC(=O)c1c(C)nc2sccn12",
    "TGI": "> 100 µM"
  },
  {
    "Compound": "NC(Cc1ccccc1)C(=O)OCN1C(=O)C2C3C=CC(C2C1=O)C1C(=O)N(COC(=O)C(N)Cc2ccccc2)C(=O)C31 (stereo not drawn)",
    "TGI": "74.6 µM"
  },
  {
    "Compound": "O=C(NNC(=O)c1ccco1)c1ccco1",
    "TGI": "> 100 µM"
  },
  {
    "Compound": "CC(C)(C)OC(=O)Cn1ncn(NC(=O)Cc2ccccc2)c1=S",
    "TGI": "> 10 µM"
  },
  {
    "Compound": "COc1cc(N=Nc2cc(Cc3ccc(N(C)C)cc3)c(N)cc2N(C)C)c2ncccc2c1",
    "TGI": "1.74 µM"
  },
  {
    "Compound": "COc1ccc(-c2nc3ccccc3c(=O)[nH]2)cc1",
    "TGI": "> 100 µM"
  },
  {
    "Compound": "CC(=O)OC1CCn2c1nc1cc([N+](=O)[O-])c(C)cc12 (stereo not drawn)",
    "TGI": "> 100 µM"
  },
  {
    "Compound": "Cc1ccc(C(=O)N/N=C(\\N=Nc2ccc([N+](=O)[O-])cc2)c2ccc(N(CCC#N)CCC#N)cc2C)cc1",
    "TGI": "> 100 µM"
  },
  {
    "Compound": "CC(=O)ON(OCc1ccc2ccccc2c1)C(C)=O",
    "TGI": "> 100 µM"
  },
  {
    "Compound": "COC(=O)Cc1cc(=O)n2c3ccccc3n(C)c2c1C#N",
    "TGI": "> 100 µM"
  },
  {
    "Compound": "N[C@@H]1CCCN(c2c(Br)cnc3[nH]cc(NC(=O)C4CC4)c23)C1",
    "TGI": "> 100 µM"
  },
  {
    "Compound": "CCCOC(=O)c1cc(O)c(O)c(O)c1",
    "TGI": "> 100 µM"
  },
  {
    "Compound": "Cc1ccc(C2=CC(=O)/C(=C\\C(=O)c3ccc(Br)cc3)O2)c(C)c1",
    "TGI": "16.4 µM"
  },
  {
    "Compound": "O/N=C\\c1c2c(cc3c1CCC3)CCC2",
    "TGI": "> 100 µM"
  },
  {
    "Compound": "Cc1cc(NCCCCCCCNc2cc(C)nc3cc(N)ccc23)c2ccc(N)cc2n1",
    "TGI": "26.1 µM"
  },
  {
    "Compound": "CCn1cc(C(=O)O)c(=O)c2cc(F)c(N3CCN(S(=O)(=O)c4ccc(Cl)cc4Cl)CC3)cc21",
    "TGI": "> 100 µM"
  },
  {
    "Compound": "CC(=O)c1csc2c1C(=O)c1ccccc1C2=O",
    "TGI": "> 100 µM"
  },
  {
    "Compound": "CC1(C)N=C(C(N)=O)c2[nH]cnc2N1",
    "TGI": "> 100 µM"
  },
  {
    "Compound": "Brc1ccc2[nH]c3c(C4=NCCC4)nccc3c2c1",
    "TGI": "> 41.9 µM"
  },
  {
    "Compound": "CSc1c(C(C)=O)c(O)n(-c2ccc(C)cc2)c(=O)c1C#N",
    "TGI": "> 100 µM"
  },
  {
    "Compound": "Nc1nc(SCc2ccccc2Cl)c2ncn(C3OC(CO)C(O)C3O)c2n1 (stereo not drawn)",
    "TGI": "> 100 µM"
  },
  {
    "Compound": "COC(=O)CN1CCN(c2cccc3c2CCCC3)CC1",
    "TGI": "> 100 µM"
  },
  {
    "Compound": "COC(=O)C(=O)C(C(=O)C(=O)Nc1ccc([N+](=O)[O-])cc1)c1nc2ccccc2[nH]c1=O (stereo not drawn)",
    "TGI": "> 100 µM"
  },
  {
    "Compound": "COc1cccc(NC(=O)CC(=O)NN)c1",
    "TGI": "> 100 µM"
  },
  {
    "Compound": "Cc1nn2c(=O)c([N+](=O)[O-])c(/C=C/c3ccc(F)cc3)nc2s1",
    "TGI": "> 31.6 µM"
  },
  {
    "Compound": "CC(C)=CCC[C@@H](C)C1=C(O)C(N[C@H](C)c2ccccc2)=C(C)C(=O)C1=O",
    "TGI": "> 60.7 µM"
  },
  {
    "Compound": "CCN(CC)c1c(C(C)(C)C)c(=O)n2ccsc2c1OC(C)=O",
    "TGI": "> 100 µM"
  },
  {
    "Compound": "CC(=O)OCC1OC(OCCCOP(=O)(OCCC#N)OCC2OC(n3cnc4c(N)ncnc43)C(OC(=O)c3ccccc3)C2OC(=O)c2ccccc2)C(OC(C)=O)C(OC(C)=O)C1OC(C)=O (stereo not drawn)",
    "TGI": "> 100 µM"
  },
  {
    "Compound": "Nc1nc(SCc2ccccc2CCl)c2[nH]cnc2n1",
    "TGI": "> 100 µM"
  },
  {
    "Compound": "COc1ccc(/C=C/C(=N\\NC(=O)c2ccccc2)c2sc(Nc3ccc([N+](=O)[O-])cc3)nc2C)cc1OC",
    "TGI": "> 100 µM"
  },
  {
    "Compound": "COC(=O)c1c(C(=O)OC)c(-c2ccccc2)n(-c2ccccc2)c(=O)c1-c1ccccc1",
    "TGI": "> 100 µM"
  },
  {
    "Compound": "COc1cc2ncn(-c3cc(OCc4ccccc4C(F)(F)F)c(C(N)=O)s3)c2cc1OC",
    "TGI": "> 25 µM"
  },
  {
    "Compound": "C/C(=C\\C(=O)Nc1ccc2n[nH]nc2c1)Nc1ccc2n[nH]nc2c1",
    "TGI": "> 100 µM"
  },
  {
    "Compound": "Cc1nc2ccc(NCCN(C)C)c3c(=O)c4ccccc4n1c23",
    "TGI": "> 54.8 µM"
  },
  {
    "Compound": "COc1ccc2nc3ccccc3c(NCCNCCO)c2c1",
    "TGI": "4.33 µM"
  },
  {
    "Compound": "O=C(C[N+]12CN3CN(CN(C3)C1)C2)c1ccc(-c2ccccc2)cc1",
    "TGI": "33.7 µM"
  },
  {
    "Compound": "O=c1ccc(N=Nc2ccccc2)ccc1O",
    "TGI": "> 100 µM"
  },
  {
    "Compound": "CN(C)C(=O)C(F)(F)C(c1ccccc1)C1C(=O)N(C)C(=O)N(C)C1=O (stereo not drawn)",
    "TGI": "> 100 µM"
  },
  {
    "Compound": "COC1OC2COC(=O)c3cc(O)c(O)c(O)c3-c3c(cc(O)c(O)c3O)C(=O)OC2C(O)C1O (stereo not drawn)",
    "TGI": "> 100 µM"
  },
  {
    "Compound": "O=c1cc(-c2ccccc2)oc2ccc(Cl)cc12",
    "TGI": "> 96.2 µM"
  },
  {
    "Compound": "CCOc1ccc(C2=NN(CC)C(=O)C(C3C(=O)N(c4ccccc4)N=C3C)C2)cc1 (stereo not drawn)",
    "TGI": "> 100 µM"
  },
  {
    "Compound": "COc1ccc(-c2nsc3c2NC(=O)CC3c2ccsc2)cc1 (stereo not drawn)",
    "TGI": "> 100 µM"
  },
  {
    "Compound": "Cc1cc(C)c2nc3c(c(C(O)C4CCCCN4)c2c1)CC/C3=C\\c1ccc(Cl)cc1 (stereo not drawn)",
    "TGI": "> 100 µM"
  }
]
